assay: green autofluorescence of compounds with avidin beads – biophysical, 488/530 nm, flow cytometry, artefact control, profiling panel (AID 1775); conditions: compound fluorescence 488/530 nm, at 10 µM, stronger effect = higher value
In all, about 220,000 compounds went through this assay and about 820 (0.37%) were called active. What follows is part of a selection rich in actives, with near analogues and random picks from the rest.

molecule	fluorescence (KMESF)
CC(C(=O)NC1CCCC1)N(c1ccc(Oc2ccccc2)cc1)S(C)(=O)=O (stereo unspecified)	9
CC(NC(=O)COC(=O)c1cc(=O)[nH]c2ccccc12)c1ccccc1 (stereo unspecified)	7
Cc1ccc(NC(=O)Nc2nnc(-c3ccncc3)s2)cc1	6
Cc1ccc(CCCOC(=O)C[N+]2(C)CCCC2)cc1	6
O=C(CCC1CCCN(Cc2ccc(O)c(Cl)c2)C1)NCc1ccccc1F (stereo unspecified)	12
COc1ccc(CCNC(=O)CN(c2ccccc2)S(C)(=O)=O)cc1	9
